Test system: rainbow trout (Oncorhynchus mykiss)
Assay: Contribution of tissues to fish body burden
Type: in vivo
Conditions: fraction, Fish #4
result type: Contribution of Gills to the fish's body burden
# print the numeric value only

Ask: Which Contribution of Gills to the fish's body burden is reported for this compound? `CCCCCCCCCCCCN`
Reply: 0.26

Ask: Which Contribution of Gills to the fish's body burden is reported for this compound? `CCCCCCCCCCCCCN(C)C`
Reply: 0.22

Ask: Which Contribution of Gills to the fish's body burden is reported for this compound? `CCCCCCCCCCCCCN`
Reply: 0.35

Ask: Which Contribution of Gills to the fish's body burden is reported for this compound? `CCCCCCCCCN(C)C`
Reply: 0.15

Ask: Which Contribution of Gills to the fish's body burden is reported for this compound? `CCCCCCCCCCCCCCCCN`
Reply: 0.50

Ask: Which Contribution of Gills to the fish's body burden is reported for this compound? `CCCCCCCCCN`
Reply: 0.28

====

Test system: rainbow trout (Oncorhynchus mykiss)
Test: Contribution of tissues to fish body burden
Type: in vivo
Conditions: in vivo
Please use 1.0 whenever % contribution to body burden, Skin is not below 20%, and 0.0 whenever it is.

Ask: Has `CCCCCCCCCCCCNC` a recorded % contribution to body burden, Skin greater than or equal to 20%?
Reply: 1.0

Ask: Has `CCCCCCCCCCCCCCCCNC` a recorded % contribution to body burden, Skin greater than or equal to 20%?
Reply: 0.0

Ask: Has `CCCCCCCCCCCCCCN(C)C` a recorded % contribution to body burden, Skin greater than or equal to 20%?
Reply: 1.0

Ask: Has `CCCCCCCCCCCCCC[N+](C)(C)C` a recorded % contribution to body burden, Skin greater than or equal to 20%?
Reply: 0.0

Ask: Has `CCCCCCCCCC[N+](C)(C)C` a recorded % contribution to body burden, Skin greater than or equal to 20%?
Reply: 1.0

Ask: Has `CCCCCCCCCCN(C)C` a recorded % contribution to body burden, Skin greater than or equal to 20%?
Reply: 0.0

====

Experiment: Tissue concentrations in rainbow trout after 7 d exposure via water (two mixtures)
Type: in vivo, Oncorhynchus mykiss
Details: rainbow trout (Oncorhynchus mykiss), in vivo, Concentration in skin
Procedure: The study was conducted with rainbow trout (Oncorhynchus mykiss) weighing between 98 and 165 g. The fish were purchased from Nordic trout Sweden AB and held in the aquaria facility prior to the experiment in February 2018. Ethical approval for the experiments was obtained from Stockholms djurförsöksetiska nämnd (decision 9967-2017). The experiments were conducted in 300 L fiberglass aquaria with a water renewal rate of 1.3 L min^–1 (MIX 1) and 1.45 L min^–1 (MIX 2). […]
Give concentration at 7 d for every item shown.
Could you give me the number in ng/g? Just the number is fine.

Ask: Which concentration at 7 d is reported for this molecule? CCCCCCCCCCCCCN [P13, tridecylamine]
Reply: 2160

Ask: Which concentration at 7 d is reported for this molecule? CCCCCCCCCCCCN [P12, Dodecylamine]
Reply: 4630

Ask: Which concentration at 7 d is reported for this molecule? CCCCCCCCCCCCCCCCN [P16, hexadecylamine]
Reply: 415

====

System: rainbow trout (Oncorhynchus mykiss)
Assay: Contribution of tissues to fish body burden
Format: in vivo
Conditions: fraction, Fish #3
result type: Contribution of Mucus to the fish's body burden
# print the numeric value only

Ask: Which Contribution of Mucus to the fish's body burden is reported for this compound? `CCCCCCCCCCCCN`
Reply: 0.11

Ask: Which Contribution of Mucus to the fish's body burden is reported for this compound? `CCCCCCCCCCCCCN(C)C`
Reply: 0.07

Ask: Which Contribution of Mucus to the fish's body burden is reported for this compound? `CCCCCCCCCN`
Reply: 0.20

Ask: Which Contribution of Mucus to the fish's body burden is reported for this compound? `CCCCCCCCCCCCCN`
Reply: 0.09

Ask: Which Contribution of Mucus to the fish's body burden is reported for this compound? `CCCCCCCCCN(C)C`
Reply: 0.09

Ask: Which Contribution of Mucus to the fish's body burden is reported for this compound? `CCCCCCCCCCCCCCCCN`
Reply: 0.04

====

Tested on: rainbow trout (Oncorhynchus mykiss)
Assay: Contribution of tissues to fish body burden
Type: in vivo
Settings: fraction, Fish #1
result type: Contribution of Mucus to the fish's body burden
# print the numeric value only

Ask: Form field: Contribution of Mucus to the fish's body burden recorded for CCCCCCCCCCCCCCCCN [P16, hexadecylamine] with rainbow trout (Oncorhynchus mykiss) (enter value)
Reply: 0.04

Ask: Form field: Contribution of Mucus to the fish's body burden recorded for CCCCCCCCCCCCCN [P13, tridecylamine] with rainbow trout (Oncorhynchus mykiss) (enter value)
Reply: 0.14

Ask: Form field: Contribution of Mucus to the fish's body burden recorded for CCCCCCCCCCCCCN(C)C [T13, N,N-dimethyltridecylamine] with rainbow trout (Oncorhynchus mykiss) (enter value)
Reply: 0.11

Ask: Form field: Contribution of Mucus to the fish's body burden recorded for CCCCCCCCCN(C)C [T9, N,N-dimethylnonylamine] with rainbow trout (Oncorhynchus mykiss) (enter value)
Reply: 0.12

Ask: Form field: Contribution of Mucus to the fish's body burden recorded for CCCCCCCCCCCCN [P12, Dodecylamine] with rainbow trout (Oncorhynchus mykiss) (enter value)
Reply: 0.19

Ask: Form field: Contribution of Mucus to the fish's body burden recorded for CCCCCCCCCN [P9, Nonylamine] with rainbow trout (Oncorhynchus mykiss) (enter value)
Reply: 0.38

====

Tested on: rainbow trout (Oncorhynchus mykiss)
Experiment: Contribution of tissues to fish body burden
Type: in vivo
Conditions: fraction, Fish #2
// classify: if (Contribution of Skin to the fish's body burden < 0.2) rule met else rule not met

Ask: Please determine if `CCCCCCCCCN(C)C` is below 0.2 in terms of Contribution of Skin to the fish's body burden.
Reply: rule not met

Ask: Please determine if `CCCCCCCCCCCCCCCCN` is below 0.2 in terms of Contribution of Skin to the fish's body burden.
Reply: rule met

Ask: Please determine if `CCCCCCCCCCCCCN` is below 0.2 in terms of Contribution of Skin to the fish's body burden.
Reply: rule not met

Ask: Please determine if `CCCCCCCCCCCCCN(C)C` is below 0.2 in terms of Contribution of Skin to the fish's body burden.
Reply: rule not met

Ask: Please determine if `CCCCCCCCCCCCN` is below 0.2 in terms of Contribution of Skin to the fish's body burden.
Reply: rule not met

Ask: Please determine if `CCCCCCCCCN` is below 0.2 in terms of Contribution of Skin to the fish's body burden.
Reply: rule met

====

Test system: rainbow trout (Oncorhynchus mykiss)
Assay: Contribution of tissues to fish body burden
Assay type: in vivo
Conditions: fraction, Fish #2
// classify: if (Contribution of Gills to the fish's body burden < 0.3) MET else NOT MET

Ask: Please determine if `CCCCCCCCCCCCCN(C)C` is below 0.3 in terms of Contribution of Gills to the fish's body burden.
Reply: MET

Ask: Please determine if `CCCCCCCCCCCCCCCCN` is below 0.3 in terms of Contribution of Gills to the fish's body burden.
Reply: NOT MET

Ask: Please determine if `CCCCCCCCCN(C)C` is below 0.3 in terms of Contribution of Gills to the fish's body burden.
Reply: MET

Ask: Please determine if `CCCCCCCCCN` is below 0.3 in terms of Contribution of Gills to the fish's body burden.
Reply: MET

Ask: Please determine if `CCCCCCCCCCCCN` is below 0.3 in terms of Contribution of Gills to the fish's body burden.
Reply: MET

Ask: Please determine if `CCCCCCCCCCCCCN` is below 0.3 in terms of Contribution of Gills to the fish's body burden.
Reply: MET

====

Give Contribution of Gills to the fish's body burden for every item shown.
System: rainbow trout (Oncorhynchus mykiss)
Assay: Contribution of tissues to fish body burden
Assay type: in vivo
Conditions: fraction, Fish #1
# print the numeric value only

Ask: Form field: Contribution of Gills to the fish's body burden recorded for CCCCCCCCCCCCCCCCN [P16, hexadecylamine] with rainbow trout (Oncorhynchus mykiss) (enter value)
Reply: 0.62

Ask: Form field: Contribution of Gills to the fish's body burden recorded for CCCCCCCCCCCCN [P12, Dodecylamine] with rainbow trout (Oncorhynchus mykiss) (enter value)
Reply: 0.34

Ask: Form field: Contribution of Gills to the fish's body burden recorded for CCCCCCCCCN(C)C [T9, N,N-dimethylnonylamine] with rainbow trout (Oncorhynchus mykiss) (enter value)
Reply: 0.11

Ask: Form field: Contribution of Gills to the fish's body burden recorded for CCCCCCCCCN [P9, Nonylamine] with rainbow trout (Oncorhynchus mykiss) (enter value)
Reply: 0.36

Ask: Form field: Contribution of Gills to the fish's body burden recorded for CCCCCCCCCCCCCN [P13, tridecylamine] with rainbow trout (Oncorhynchus mykiss) (enter value)
Reply: 0.27

Ask: Form field: Contribution of Gills to the fish's body burden recorded for CCCCCCCCCCCCCN(C)C [T13, N,N-dimethyltridecylamine] with rainbow trout (Oncorhynchus mykiss) (enter value)
Reply: 0.28
